Values from ChEMBL document CHEMBL4613250

- assay-overview: Half life in beagle dog at 0.1 mg/kg, iv after 15 mins to 24 hrs by HPLC-MS/MS analysis
- Assay type: ADME, organism-based, Canis lupus familiaris
- conditions-used: in vivo
metric: half-life (h)
Numeric answer only, unit h assumed.

Request: What does the record list as half-life for CCO[C@H]1CCN(Cc2c(OC)cc(C)c3[nH]ccc23)[C@H](c2ccc(C(=O)O)cc2)C1.Cl ?
Result: 5.6

* * *

- assay-overview: Volume of distribution at steady state in Wistar Han rat at 1 mg/kg, iv after 0.5 to 24 hrs by HPLC-MS/MS analysis
- Format: ADME, organism-based
- conditions-used: in vivo, read-out: Vdss
metric: Vd (L/kg)
Express the result in L/kg but write the number alone.

Request: Query: Vd; subject: CCO[C@H]1CCN(Cc2c(OC)cc(C)c3[nH]ccc23)[C@H](c2ccc(C(=O)O)cc2)C1.Cl
Result: 2.3

* * *

- assay-overview: Mean residence time in Wistar Han rat at 1 mg/kg, iv after 0.5 to 24 hrs by HPLC-MS/MS analysis
- Format: ADME, organism-based
- conditions-used: in vivo
metric: MRT (h)
Numeric answer only, unit h assumed.

Request: Returns the measured MRT for the input compound. Input: CCO[C@H]1CCN(Cc2c(OC)cc(C)c3[nH]ccc23)[C@H](c2ccc(C(=O)O)cc2)C1.Cl
Result: 3.4

* * *

- assay-overview: Volume of distribution at steady state in C57BL/6 mouse at 1 mg/kg, iv after 5 mins to 7 hrs by HPLC-MS/MS analysis
- Format: ADME, organism-based
- conditions-used: C57BL/6, mouse, in vivo, read-out: Vdss
metric: Vd (L/kg)
Output spec: scalar in L/kg, unitless text.

Request: Returns the measured Vd for the input compound. Input: COc1cc(C)c2[nH]ccc2c1CN1CC[C@H](OC)C[C@H]1c1ccc(C(=O)O)cc1
Result: 1.8

Request: // lookup Vd for CO[C@H]1CCN(Cc2c(C3CC3)cc(C)c3[nH]ccc23)[C@H](c2ccc(C(=O)O)cc2)C1
Result: 4.4

* * *

- assay-overview: Clearance in C57BL/6 mouse at 1 mg/kg, iv after 5 mins to 7 hrs by HPLC-MS/MS analysis
- Type: ADME, organism-based
- conditions-used: in vivo
metric: clearance (mL/min/kg)
Provide only the numeric value, understood in mL/min/kg.

Request: What does the data say about its clearance? Entry: COc1cc(C)c2[nH]ccc2c1CN1CC[C@H](OC)C[C@H]1c1ccc(C(=O)O)cc1
Result: 14.3

* * *

- assay-overview: AUC (0 to last) in brown Norway rat retina at 10 mg/kg, po administered as single dose measured after 0.25 to 24 hrs by HPLC-MS/MS analysis
- Format: ADME, organism-based
- Design: dose 10 mg/kg, route oral, time 0 - last
metric: AUC(0-t)

Request: For the molecule shown here, CCO[C@H]1CCN(Cc2c(OC)cc(C)c3[nH]ccc23)[C@H](c2ccc(C(=O)O)cc2)C1 [IPTACOPAN] , give the reported AUC(0-t).
Result: 1.67 µM·h

* * *

I'd be grateful if you could share measured IC50 for these entries.

Request: Field: IC50 (Voltage-gated inwardly rectifying potassium channel KCNH2 (Homo sapiens, UniProt Q12809)). Entry: CO[C@H]1CCN(Cc2c(C)cc(C)c3[nH]ccc23)[C@H](CO)C1
Result: 14 µM

Request: Hello, I am looking for reported IC50 with Voltage-gated inwardly rectifying potassium channel KCNH2 (Homo sapiens, UniProt Q12809) for Cc1cc(Br)c(NC2=NCCN2)c2ccccc12 . Could you help?
Result: 7.1 µM

Request: Short answer please: IC50, Voltage-gated inwardly rectifying potassium channel KCNH2 (Homo sapiens, UniProt Q12809), entry Cc1cc(C)c2[nH]ccc2c1CN1CCCCC1c1ccc(C(=O)O)cc1 (stereo not drawn)
Result: > 30 µM
